System: 435261-313-R-J1-PDC tumor spheroid viability
Test: Anticancer human tumor 435261-313-R-J1-PDC patient-derived colon adenocarcinoma cell line growth inhibition [PI3K]
Conditions: second compound 1 µM; first compound 1 µM; hits give low values; spheroids with HUVEC and MSC
Recorded endpoint: viability, T/C (%)
Number only, in %; omit the unit.

Name the recorded viability, T/C for CC1(C)CCC(Nc2ncc(C(F)(F)F)c(-c3c[nH]c4c(P(C)(C)=O)c(C#N)ccc34)n2)CN1 (centres undefined) + CC(Nc1ncnc2nc[nH]c12)c1cc2cccc(Cl)c2c(=O)n1-c1ccccc1 .
57

Try the compound CC(C)NCC(C(=O)N1CCN(c2ncnc3c2C(C)CC3O)CC1)c1ccc(Cl)cc1 (centres undefined) + CC(Nc1ccc2c(c1)OCCn1cc(N3C(=O)OCC3C(F)F)nc1-2)C(N)=O
18.4

Try the compound CC1(C)CCC(Nc2ncc(C(F)(F)F)c(-c3c[nH]c4c(P(C)(C)=O)c(C#N)ccc34)n2)CN1 (centres undefined) + Cc1nc(NC(=O)N2CCCC2C(N)=O)sc1-c1ccnc(C(C)(C)C(F)(F)F)c1
27.3

Try the compound Cn1nccc1Nc1nccc(-c2ccn(C(CO)c3ccc(Cl)c(F)c3)c(=O)c2)n1 (centres undefined) + CC(Nc1ccc2c(c1)OCCn1cc(N3C(=O)OCC3C(F)F)nc1-2)C(N)=O
6.3

Try the compound C=CC(=O)N1CCN(c2nc(=O)n(-c3c(C)ccnc3C(C)C)c3nc(-c4c(O)cccc4F)c(F)cc23)C(C)C1 (centres undefined) + CC(Nc1ncnc2nc[nH]c12)c1cc2cccc(Cl)c2c(=O)n1-c1ccccc1
91.9

Try the compound Cn1ncc(Cl)c1-c1cc(C(=O)NC(CN)Cc2cccc(F)c2)sc1Cl (centres undefined) + Cc1nc(NC(=O)N2CCCC2C(N)=O)sc1-c1ccnc(C(C)(C)C(F)(F)F)c1
19.1

Try the compound CC1(C)CCC(CN2CCN(c3ccc(C(=O)NS(=O)(=O)c4ccc(NCC5CCOCC5)c([N+](=O)[O-])c4)c(Oc4cnc5[nH]ccc5c4)c3)CC2)=C(c2ccc(Cl)cc2)C1 + COc1c(OCCCN2CCOCC2)ccc2c3n(c(=NC(=O)c4cnc(N)nc4)nc12)CCN3
5.2

Try the compound C=CC(=O)N1CCN(c2nc(=O)n(-c3c(C)ccnc3C(C)C)c3nc(-c4c(O)cccc4F)c(F)cc23)C(C)C1 (centres undefined) + Cc1nc(NC(=O)N2CCCC2C(N)=O)sc1-c1ccnc(C(C)(C)C(F)(F)F)c1
39.6

Try the compound Cn1nccc1Nc1nccc(-c2ccn(C(CO)c3ccc(Cl)c(F)c3)c(=O)c2)n1 (centres undefined) + CC(Nc1ncnc2nc[nH]c12)c1cc2cccc(Cl)c2c(=O)n1-c1ccccc1
48.1

Try the compound Cn1nccc1Nc1nccc(-c2ccn(C(CO)c3ccc(Cl)c(F)c3)c(=O)c2)n1 (centres undefined) + COc1c(OCCCN2CCOCC2)ccc2c3n(c(=NC(=O)c4cnc(N)nc4)nc12)CCN3
1.15

Try the compound CCN1CCN(Cc2ccc(Nc3ncc(F)c(-c4cc(F)c5nc(C)n(C(C)C)c5c4)n3)nc2)CC1 + CC(Nc1ccc2c(c1)OCCn1cc(N3C(=O)OCC3C(F)F)nc1-2)C(N)=O
13.4

Try the compound Cn1ncc(Cl)c1-c1cc(C(=O)NC(CN)Cc2cccc(F)c2)sc1Cl (centres undefined) + CC(Nc1ccc2c(c1)OCCn1cc(N3C(=O)OCC3C(F)F)nc1-2)C(N)=O
17.2

Try the compound C[C@@H](NC(=O)c1ncnc(N)c1Cl)c1ncc(C(=O)Nc2cc(C(F)(F)F)c(Cl)cn2)s1 + CC(Nc1ccc2c(c1)OCCn1cc(N3C(=O)OCC3C(F)F)nc1-2)C(N)=O
27

Try the compound CNC(=O)c1ccc(N2C(=S)N(c3ccc(C#N)c(C(F)(F)F)c3)C(=O)C2(C)C)cc1F + COc1c(OCCCN2CCOCC2)ccc2c3n(c(=NC(=O)c4cnc(N)nc4)nc12)CCN3
4.38

Try the compound CNC(=O)c1ccc(N2C(=S)N(c3ccc(C#N)c(C(F)(F)F)c3)C(=O)C2(C)C)cc1F + CC(Nc1ccc2c(c1)OCCn1cc(N3C(=O)OCC3C(F)F)nc1-2)C(N)=O
15.2

Try the compound CC(C)NCC(C(=O)N1CCN(c2ncnc3c2C(C)CC3O)CC1)c1ccc(Cl)cc1 (centres undefined) + CC(Nc1ncnc2nc[nH]c12)c1cc2cccc(Cl)c2c(=O)n1-c1ccccc1
80

Try the compound C#Cc1c(F)ccc2cc(O)cc(-c3ncc4c(N5CC6CCC(C5)N6)nc(OCC56CCCN5CC(F)C6)nc4c3F)c12 (centres undefined) + CC(Nc1ncnc2nc[nH]c12)c1cc2cccc(Cl)c2c(=O)n1-c1ccccc1
103

Try the compound C=CC(=O)N1CCN(c2nc(=O)n(-c3c(C)ccnc3C(C)C)c3nc(-c4c(O)cccc4F)c(F)cc23)C(C)C1 (centres undefined) + CC(Nc1ccc2c(c1)OCCn1cc(N3C(=O)OCC3C(F)F)nc1-2)C(N)=O
20.4

Try the compound CC1(C)CCC(CN2CCN(c3ccc(C(=O)NS(=O)(=O)c4ccc(NCC5CCOCC5)c([N+](=O)[O-])c4)c(Oc4cnc5[nH]ccc5c4)c3)CC2)=C(c2ccc(Cl)cc2)C1 + Cc1nc(NC(=O)N2CCCC2C(N)=O)sc1-c1ccnc(C(C)(C)C(F)(F)F)c1
25.4

====

System: 435261-313-R-J1-PDC tumor spheroid viability
Test: Anticancer human tumor 435261-313-R-J1-PDC cell line growth inhibition [PI3K];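 note: spheroids exposed to compounds for 7 days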
Conditions: second compound 0.316 µM; first compound 10 µM; hits give low values; spheroids with HUVEC and MSC
Recorded endpoint: viability, T/C (%)
Number only, in %; omit the unit.

Name the recorded viability, T/C for Cn1ncc(Cl)c1-c1cc(C(=O)NC(CN)Cc2cccc(F)c2)sc1Cl (stereo not given) + CC(Nc1ccc2c(c1)OCCn1cc(N3C(=O)OCC3C(F)F)nc1-2)C(N)=O .
4.44

Try the compound CC1(C)CCC(Nc2ncc(C(F)(F)F)c(-c3c[nH]c4c(P(C)(C)=O)c(C#N)ccc34)n2)CN1 (stereo not given) + Cc1nc(NC(=O)N2CCCC2C(N)=O)sc1-c1ccnc(C(C)(C)C(F)(F)F)c1
0.33

Try the compound C[C@@H](NC(=O)c1ncnc(N)c1Cl)c1ncc(C(=O)Nc2cc(C(F)(F)F)c(Cl)cn2)s1 + COc1c(OCCCN2CCOCC2)ccc2c3n(c(=NC(=O)c4cnc(N)nc4)nc12)CCN3
3.91

Try the compound Cn1nccc1Nc1nccc(-c2ccn(C(CO)c3ccc(Cl)c(F)c3)c(=O)c2)n1 (stereo not given) + CC(Nc1ccc2c(c1)OCCn1cc(N3C(=O)OCC3C(F)F)nc1-2)C(N)=O
3.34

Try the compound CCCS(=O)(=O)Nc1ccc(F)c(C(=O)c2c[nH]c3ncc(-c4ccc(Cl)cc4)cc23)c1F + Cc1nc(NC(=O)N2CCCC2C(N)=O)sc1-c1ccnc(C(C)(C)C(F)(F)F)c1
4.86

====

Test system: 435261-313-R-J1-PDC tumor spheroid viability
Test: Anticancer human tumor 435261-313-R-J1-PDC cell line growth inhibition [PI3K];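 note: spheroids exposed to compounds for 7 days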
Conditions: second compound 0.0316 µM; first compound 1 µM; hits give low values; spheroids with HUVEC and MSC
For each of the molecules below, state its viability, T/C.
Number only, in %; omit the unit.

Name the recorded viability, T/C for CNC(=O)c1ccc(N2C(=S)N(c3ccc(C#N)c(C(F)(F)F)c3)C(=O)C2(C)C)cc1F + COc1c(OCCCN2CCOCC2)ccc2c3n(c(=NC(=O)c4cnc(N)nc4)nc12)CCN3 .
27.3

Try the molecule CC(C)NCC(C(=O)N1CCN(c2ncnc3c2C(C)CC3O)CC1)c1ccc(Cl)cc1 (stereo not given) + CC(Nc1ccc2c(c1)OCCn1cc(N3C(=O)OCC3C(F)F)nc1-2)C(N)=O
60.8

Try the molecule C=CC(=O)N1CCN(c2nc(=O)n(-c3c(C)ccnc3C(C)C)c3nc(-c4c(O)cccc4F)c(F)cc23)C(C)C1 (stereo not given) + CC(Nc1ncnc2nc[nH]c12)c1cc2cccc(Cl)c2c(=O)n1-c1ccccc1
117

Try the molecule Cn1nccc1Nc1nccc(-c2ccn(C(CO)c3ccc(Cl)c(F)c3)c(=O)c2)n1 (stereo not given) + CC(Nc1ccc2c(c1)OCCn1cc(N3C(=O)OCC3C(F)F)nc1-2)C(N)=O
18.9

Try the molecule CC1(C)CCC(CN2CCN(c3ccc(C(=O)NS(=O)(=O)c4ccc(NCC5CCOCC5)c([N+](=O)[O-])c4)c(Oc4cnc5[nH]ccc5c4)c3)CC2)=C(c2ccc(Cl)cc2)C1 + CC(Nc1ccc2c(c1)OCCn1cc(N3C(=O)OCC3C(F)F)nc1-2)C(N)=O
65.8

====

System: 435261-313-R-J1-PDC tumor spheroid viability
Test: Anticancer human tumor 435261-313-R-J1-PDC cell line growth inhibition [PI3K];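 note: spheroids exposed to compounds for 7 days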
Conditions: second compound 0.1 µM; first compound 0.316 µM; hits give low values; spheroids with HUVEC and MSC
Recorded endpoint: viability, T/C (%)
Number only, in %; omit the unit.

Name the recorded viability, T/C for Cn1nccc1Nc1nccc(-c2ccn(C(CO)c3ccc(Cl)c(F)c3)c(=O)c2)n1 (stereo unspecified) + CC(Nc1ncnc2nc[nH]c12)c1cc2cccc(Cl)c2c(=O)n1-c1ccccc1 .
46.5

Try the molecule CCCS(=O)(=O)Nc1ccc(F)c(C(=O)c2c[nH]c3ncc(-c4ccc(Cl)cc4)cc23)c1F + COc1c(OCCCN2CCOCC2)ccc2c3n(c(=NC(=O)c4cnc(N)nc4)nc12)CCN3
22

Try the molecule C=CC(=O)N1CCN(c2nc(=O)n(-c3c(C)ccnc3C(C)C)c3nc(-c4c(O)cccc4F)c(F)cc23)C(C)C1 (stereo unspecified) + CC(Nc1ncnc2nc[nH]c12)c1cc2cccc(Cl)c2c(=O)n1-c1ccccc1
103

Try the molecule CC1(C)CCC(CN2CCN(c3ccc(C(=O)NS(=O)(=O)c4ccc(NCC5CCOCC5)c([N+](=O)[O-])c4)c(Oc4cnc5[nH]ccc5c4)c3)CC2)=C(c2ccc(Cl)cc2)C1 + CC(Nc1ncnc2nc[nH]c12)c1cc2cccc(Cl)c2c(=O)n1-c1ccccc1
81.3

Try the molecule CC(C)NCC(C(=O)N1CCN(c2ncnc3c2C(C)CC3O)CC1)c1ccc(Cl)cc1 (stereo unspecified) + CC(Nc1ccc2c(c1)OCCn1cc(N3C(=O)OCC3C(F)F)nc1-2)C(N)=O
34.8

Try the molecule CNC(=O)c1ccc(N2C(=S)N(c3ccc(C#N)c(C(F)(F)F)c3)C(=O)C2(C)C)cc1F + COc1c(OCCCN2CCOCC2)ccc2c3n(c(=NC(=O)c4cnc(N)nc4)nc12)CCN3
14.9

Try the molecule CC1(C)CCC(Nc2ncc(C(F)(F)F)c(-c3c[nH]c4c(P(C)(C)=O)c(C#N)ccc34)n2)CN1 (stereo unspecified) + COc1c(OCCCN2CCOCC2)ccc2c3n(c(=NC(=O)c4cnc(N)nc4)nc12)CCN3
15.5

Try the molecule C=CC(=O)N1CCN(c2nc(=O)n(-c3c(C)ccnc3C(C)C)c3nc(-c4c(O)cccc4F)c(F)cc23)C(C)C1 (stereo unspecified) + Cc1nc(NC(=O)N2CCCC2C(N)=O)sc1-c1ccnc(C(C)(C)C(F)(F)F)c1
73.5

Try the molecule Cn1nccc1Nc1nccc(-c2ccn(C(CO)c3ccc(Cl)c(F)c3)c(=O)c2)n1 (stereo unspecified) + CC(Nc1ccc2c(c1)OCCn1cc(N3C(=O)OCC3C(F)F)nc1-2)C(N)=O
16.9

Try the molecule C[C@@H](NC(=O)c1ncnc(N)c1Cl)c1ncc(C(=O)Nc2cc(C(F)(F)F)c(Cl)cn2)s1 + CC(Nc1ncnc2nc[nH]c12)c1cc2cccc(Cl)c2c(=O)n1-c1ccccc1
153

Try the molecule CCN1CCN(Cc2ccc(Nc3ncc(F)c(-c4cc(F)c5nc(C)n(C(C)C)c5c4)n3)nc2)CC1 + CC(Nc1ncnc2nc[nH]c12)c1cc2cccc(Cl)c2c(=O)n1-c1ccccc1
48.6
